- Experimental system: hNOD2 (Homo sapiens)
- Construct: host or cells: HEK-Blue NOD2 cells (HEK293)
- Assay method text: HEK-Blue NOD2 cell line reporter assay (NF-κB-inducible SEAP)
- Assay type: cell-based
- Assay conditions: HEK-Blue NOD2 cells, 18 h, NF-κB transcriptional activity (SEAP); read-out: EC50 (nM), NOD2 agonistic activity
Measurement label: EC50 (nM)

P = CCCCCCCCCC(=O)Oc1ccc(/C=C/C(=O)NCC(=O)N[C@H](C(=O)N[C@H](CCC(=O)OCC)C(=O)OCC)C(C)C)cc1OC [Compound 7]
Q = CCOC(=O)[C@@H](CCC(=O)OCCN1CCOCC1)NC(=O)[C@@H](NC(=O)CNC(=O)/C=C/c1ccc(O)c(OC)c1)C(C)C [Compound 35]
R = CCCCCC(=O)Oc1ccc(/C=C/C(=O)NCC(=O)N[C@H](C(=O)N[C@H](CCC(=O)OCC)C(=O)OCC)C(C)C)cc1OC [Compound 4]
S = CCCCCC(C)C(=O)Oc1ccc(/C=C/C(=O)NCC(=O)N[C@H](C(=O)N[C@H](CCC(=O)OCC)C(=O)OCC)C(C)C)cc1OC (stereo partly shown) [Compound 11]
Query: Put the items in sequence by EC50, from largest down. Output spec: a listing of the labels in the requested order.
Response: Q, P, R, S
(Q: 356 nM, P: 30.6 nM, R: 20.2 nM, S: 11.7 nM)

###

- System: K562 cancer cells
- Assay method text: PBMC cytotoxicity against K562 cancer cells (flow cytometry)
- Type: cell-based
- Assay conditions: alone: compounds 10 μM, LPS 1 μg/mL, IL-2 200 U/mL; 18 h, then 4 h coincubation, effector:target 40:1
Measurement label: enhancement of cytotoxicity of PBMCs against K562 cells (relative to negative control)

Reference set, count: 4
CC/C=C\C/C=C\C/C=C\C/C=C\C/C=C\CCCC(=O)Oc1ccc(/C=C/C(=O)NCC(=O)N[C@H](C(=O)N[C@H](CCC(=O)OCC)C(=O)OCC)C(C)C)cc1OC :: no activity
CC(=O)N[C@H]1C(O)O[C@H](CO)[C@@H](O)[C@@H]1O[C@H](C)C(=O)N[C@@H](C)C(=O)N[C@H](CCC(=O)O)C(N)=O (mixture of isomers) [MDP, muramyl dipeptide, reference compound] :: no activity
CCCC(=O)Oc1ccc(/C=C/C(=O)NCC(=O)N[C@H](C(=O)N[C@H](CCC(=O)OCC)C(=O)OCC)C(C)C)cc1OC :: no activity
CCOC(=O)CC[C@@H](NC(=O)[C@@H](NC(=O)CNC(=O)/C=C/c1ccc(OC(=O)CO[C@H]2CC[C@@]3(C)C(=CC[C@H]4[C@@H]5CC[C@H]([C@H](C)CCCC(C)C)[C@@]5(C)CC[C@@H]43)C2)c(OC)c1)C(C)C)C(=O)OCC :: 1.34 fold

Next compound, please.
Query: What reported enhancement of cytotoxicity of PBMCs against K562 cells (relative to negative control) corresponds to CCCCCCCCCCCC(=O)Oc1ccc(/C=C/C(=O)NCC(=O)N[C@H](C(=O)N[C@H](CCC(=O)OCC)C(=O)OCC)C(C)C)cc1OC on K562 cancer cells?
Response: no activity

###

- Experimental system: hNOD2 (Homo sapiens, UniProt Q9HC29)
- Construct: host or cells: HEK-Blue NOD2 cells (HEK293)
- Sequence (Q9HC29 whole entry): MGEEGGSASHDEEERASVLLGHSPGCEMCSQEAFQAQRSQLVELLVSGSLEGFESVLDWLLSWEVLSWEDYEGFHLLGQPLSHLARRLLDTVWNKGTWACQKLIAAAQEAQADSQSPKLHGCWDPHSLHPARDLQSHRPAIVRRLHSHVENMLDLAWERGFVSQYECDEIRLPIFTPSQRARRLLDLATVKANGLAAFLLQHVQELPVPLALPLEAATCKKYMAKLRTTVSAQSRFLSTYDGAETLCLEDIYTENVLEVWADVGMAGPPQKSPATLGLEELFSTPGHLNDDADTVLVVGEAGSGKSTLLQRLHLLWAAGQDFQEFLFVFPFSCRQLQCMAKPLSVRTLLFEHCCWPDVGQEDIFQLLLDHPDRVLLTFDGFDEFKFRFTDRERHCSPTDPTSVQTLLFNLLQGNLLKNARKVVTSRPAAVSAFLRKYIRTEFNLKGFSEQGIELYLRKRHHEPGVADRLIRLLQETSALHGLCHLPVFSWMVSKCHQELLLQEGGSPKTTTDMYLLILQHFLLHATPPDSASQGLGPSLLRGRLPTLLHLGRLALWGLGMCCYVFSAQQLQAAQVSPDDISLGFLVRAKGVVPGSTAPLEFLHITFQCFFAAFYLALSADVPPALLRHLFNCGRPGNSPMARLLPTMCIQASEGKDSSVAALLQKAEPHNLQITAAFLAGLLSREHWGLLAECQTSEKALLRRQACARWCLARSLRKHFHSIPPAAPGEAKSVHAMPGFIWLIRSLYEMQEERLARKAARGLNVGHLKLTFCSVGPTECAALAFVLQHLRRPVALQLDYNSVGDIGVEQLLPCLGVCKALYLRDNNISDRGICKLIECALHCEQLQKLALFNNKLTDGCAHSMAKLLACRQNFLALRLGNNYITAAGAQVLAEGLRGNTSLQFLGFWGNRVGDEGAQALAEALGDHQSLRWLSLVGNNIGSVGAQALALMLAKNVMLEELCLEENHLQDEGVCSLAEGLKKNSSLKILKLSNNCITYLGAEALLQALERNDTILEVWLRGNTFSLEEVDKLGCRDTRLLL
- Assay method text: HEK-Blue NOD2 cell line reporter assay (NF-κB-inducible SEAP)
- Type: cell-based
- Assay conditions: HEK-Blue NOD2 cells, 18 h, NF-κB transcriptional activity (SEAP); read-out: EC50 (nM), NOD2 agonistic activity
Measurement label: EC50 (nM)

Reference set, count: 10
CCOC(=O)[C@@H](CCC(=O)NCCCNCCCCNCCCN)NC(=O)[C@@H](NC(=O)CNC(=O)/C=C/c1ccc(O)c(OC)c1)C(C)C [Compound 32] :: 8640
CCCCC(CC)C(=O)Oc1ccc(/C=C/C(=O)NCC(=O)N[C@H](C(=O)N[C@H](CCC(=O)OCC)C(=O)OCC)C(C)C)cc1OC (stereo partly drawn) [Compound 12] :: 21.6
CCCCC/C=C\C/C=C\C/C=C\CCCCC(=O)Oc1ccc(/C=C/C(=O)NCC(=O)N[C@H](C(=O)N[C@H](CCC(=O)OCC)C(=O)OCC)C(C)C)cc1OC [Compound 21] :: 205
CCCCCCCCCCCCCC(=O)Oc1ccc(/C=C/C(=O)NCC(=O)N[C@H](C(=O)N[C@H](CCC(=O)OCC)C(=O)OCC)C(C)C)cc1OC [Compound 8] :: 69.5
CCOC(=O)CC[C@@H](NC(=O)[C@@H](NC(=O)CNC(=O)/C=C/c1ccc(OC(=O)CCCC2CCCCC2)c(OC)c1)C(C)C)C(=O)OCC [Compound 16] :: 25.8
CC/C=C\C/C=C\C/C=C\C/C=C\C/C=C\C/C=C\CCC(=O)Oc1ccc(/C=C/C(=O)NCC(=O)N[C@H](C(=O)N[C@H](CCC(=O)OCC)C(=O)OCC)C(C)C)cc1OC [Compound 22] :: 200
CCCCC/C=C\C/C=C\CCCCCCCC(=O)Oc1ccc(/C=C/C(=O)NCC(=O)N[C@H](C(=O)N[C@H](CCC(=O)OCC)C(=O)OCC)C(C)C)cc1OC [Compound 19] :: 198
CCOC(=O)CC[C@@H](NC(=O)[C@@H](NC(=O)CNC(=O)/C=C/c1cc(OC)c(O)c(OC)c1)C(C)C)C(=O)OCC [Compound 37] :: 96.1
CCCCCCCCCCCCCCCC(=O)Oc1ccc(/C=C/C(=O)NCC(=O)N[C@H](C(=O)N[C@H](CCC(=O)OCC)C(=O)OCC)C(C)C)cc1OC [Compound 9] :: 382
CC(=O)N[C@H]1C(O)O[C@H](CO)[C@@H](O)[C@@H]1O[C@H](C)C(=O)N[C@@H](C)C(=O)N[C@H](CCC(=O)O)C(N)=O (mixture of isomers) [MDP, muramyl dipeptide, reference compound] :: 205

a = CC/C=C\C/C=C\C/C=C\CCCCCCCC(=O)Oc1ccc(/C=C/C(=O)NCC(=O)N[C@H](C(=O)N[C@H](CCC(=O)OCC)C(=O)OCC)C(C)C)cc1OC [Compound 20]
b = CCCCCCCC/C=C\CCCCCCCC(=O)Oc1ccc(/C=C/C(=O)NCC(=O)N[C@H](C(=O)N[C@H](CCC(=O)OCC)C(=O)OCC)C(C)C)cc1OC [Compound 18]
c = CCCCCCCCCCCCCCCCCC(=O)Oc1ccc(/C=C/C(=O)NCC(=O)N[C@H](C(=O)N[C@H](CCC(=O)OCC)C(=O)OCC)C(C)C)cc1OC [Compound 10]
Query: # rank by EC50, ascending (min first) Output spec: a listing of the labels in the requested order.
Response: a, b, c
(a: 135 nM, b: 422 nM, c: 7200 nM)
